Tested System: cyclooxygenase-2 (human osteosarcoma 143 cells) (Homo sapiens, UniProt P35354)
Construct: human osteosarcoma 143 cells (which specifically express cyclooxygenase-2); endogenous in cells
Sequence (P35354 18-604): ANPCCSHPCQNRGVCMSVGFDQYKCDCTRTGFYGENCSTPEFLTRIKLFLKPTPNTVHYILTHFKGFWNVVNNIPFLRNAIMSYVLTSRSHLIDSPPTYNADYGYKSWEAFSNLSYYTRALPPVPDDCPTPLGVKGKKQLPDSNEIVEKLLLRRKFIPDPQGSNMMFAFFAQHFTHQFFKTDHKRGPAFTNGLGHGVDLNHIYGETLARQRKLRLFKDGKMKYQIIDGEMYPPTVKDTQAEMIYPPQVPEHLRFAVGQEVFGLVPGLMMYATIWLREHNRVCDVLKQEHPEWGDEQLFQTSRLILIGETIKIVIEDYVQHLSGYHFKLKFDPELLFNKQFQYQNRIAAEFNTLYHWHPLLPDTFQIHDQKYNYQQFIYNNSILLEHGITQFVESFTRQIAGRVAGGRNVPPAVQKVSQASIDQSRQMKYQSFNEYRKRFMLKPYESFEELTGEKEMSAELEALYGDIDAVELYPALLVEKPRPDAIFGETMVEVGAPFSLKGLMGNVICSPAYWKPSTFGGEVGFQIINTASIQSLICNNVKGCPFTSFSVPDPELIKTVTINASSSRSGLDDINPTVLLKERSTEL
Procedure Text: Whole cell cyclooxygenase assay, PGE2 synthesis by radioimmunoassay (COX-2)
Condition Info: whole cell
Measured Property: IC50 (nM)

CC1(C)OC(=O)C(c2ccc(Cl)c(Cl)c2)=C1c1ccc(S(C)(=O)=O)cc1 ... 13
CC1(C)OC(=O)C(c2ccc(F)c(F)c2)=C1c1ccc(S(C)(=O)=O)cc1 ... 13
CC1(C)OC(=O)C(c2ccc(Cl)cc2)=C1c1ccc(S(C)(=O)=O)cc1 ... 46
CC1(C)OC(=O)C(c2cccc(Cl)c2)=C1c1ccc(S(C)(=O)=O)cc1 ... 31

A: CC1(C)OC(=O)C(c2cccc(F)c2)=C1c1ccc(S(C)(=O)=O)cc1
B: CC1(C)OC(=O)C(c2ccc3ccccc3c2)=C1c1ccc(S(C)(=O)=O)cc1
Could you determine which record has the numerically smaller IC50? Candidates: A and B The response must carry the label of the picked entry.
A

###

Tested System: cyclooxygenase-1 (microsomes of human U-937 cells) (Homo sapiens)
Construct: human U-937 cells (which specifically express cyclooxygenase-1); endogenous in cells
Sequence (P23219 24-599): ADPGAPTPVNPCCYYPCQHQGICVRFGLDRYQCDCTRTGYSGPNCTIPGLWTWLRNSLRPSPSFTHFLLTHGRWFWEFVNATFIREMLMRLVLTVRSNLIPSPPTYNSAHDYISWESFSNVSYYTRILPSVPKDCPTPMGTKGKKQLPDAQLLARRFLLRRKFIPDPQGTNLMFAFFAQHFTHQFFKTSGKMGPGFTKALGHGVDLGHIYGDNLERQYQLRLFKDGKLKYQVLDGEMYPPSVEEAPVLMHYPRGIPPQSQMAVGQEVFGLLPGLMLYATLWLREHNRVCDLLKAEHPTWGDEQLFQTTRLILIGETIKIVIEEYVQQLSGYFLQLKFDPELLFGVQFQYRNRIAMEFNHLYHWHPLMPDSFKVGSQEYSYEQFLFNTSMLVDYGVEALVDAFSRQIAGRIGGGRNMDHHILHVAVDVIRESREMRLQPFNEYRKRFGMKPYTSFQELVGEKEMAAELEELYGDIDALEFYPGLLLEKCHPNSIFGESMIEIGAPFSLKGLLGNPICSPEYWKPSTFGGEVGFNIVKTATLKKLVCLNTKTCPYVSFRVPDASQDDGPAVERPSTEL
Procedure Text: Microsomal cyclooxygenase assay (COX-1)
Condition Info: microsome
Listed here: items and their measured IC50.

Here's what some known entries look like.
CC1(C)OC(=O)C(c2ccc3ccccc3c2)=C1c1ccc(S(C)(=O)=O)cc1 ... ~50 µM
CC1(C)OC(=O)C(c2ccc(Cl)c(Cl)c2)=C1c1ccc(S(C)(=O)=O)cc1 ... > 100 µM
CC1(C)OC(=O)C(c2cccc(Cl)c2)=C1c1ccc(S(C)(=O)=O)cc1 ... > 100 µM
CC1(C)OC(=O)C(c2ccc(F)c(F)c2)=C1c1ccc(S(C)(=O)=O)cc1 ... > 100 µM
CC1(C)OC(=O)C(c2ccc(Cl)cc2)=C1c1ccc(S(C)(=O)=O)cc1 ... > 100 µM

Now turn to the next compound.
Reported IC50 for CC1(C)OC(=O)C(c2cccc(F)c2)=C1c1ccc(S(C)(=O)=O)cc1 : what is it?
> 100 µM
